Tested on: neuroblastoma B103 cell line
EXPERIMENT NOTES: MTT test: apoptosis induced by staurosporin
Assay type: cell-based
MEASUREMENT CONTEXT: test compound 1 μM + 0.1 μM staurosporin; B103 cells; staurosporin-only control = 100%
Examples of compounds with documented Survival rate (%) follow.
Your answer is read as %, so omit the unit and give the number.

Here is how some compounds turned out for Survival rate (%).
COMPOUND | Survival rate (%)
CC(C)=CCCC(C)(O)[C@H]1CC[C@]2(C)[C@@H]1[C@H](O)C[C@@H]1[C@@]3(C)CC[C@H](O)C(C)(C)[C@@H]3CC[C@]12C (stereo in doubt) | 89.2
CC(C)=CCC[C@](C)(O)[C@H]1CC[C@]2(C)[C@@H]1[C@H](O)C[C@@H]1[C@@]3(C)CC[C@H](O)C(C)(C)[C@@H]3[C@@H](O)C[C@]12C | 107.8

Given CC(C)=CCC[C@](C)(O[C@@H]1O[C@H](CO[C@@H]2O[C@@H](CO)[C@H](O)[C@H]2O)[C@@H](O)[C@H](O)[C@H]1O)[C@H]1CC[C@]2(C)[C@@H]1[C@H](O)C[C@@H]1[C@@]3(C)CC[C@H](O)C(C)(C)[C@@H]3CC[C@]12C [Ginsenoside Mc] , state its recorded Survival rate (%).
101.1

What value of measured Survival rate (%) is listed for CC(C)=CCC[C@](C)(O[C@@H]1O[C@H](CO[C@@H]2O[C@@H](CO)[C@H](O)[C@H]2O)[C@@H](O)[C@H](O)[C@H]1O)[C@H]1CC[C@]2(C)[C@@H]1[C@H](O)C[C@@H]1[C@@]3(C)CC[C@H](O[C@@H]4O[C@H](CO)[C@@H](O)[C@H](O)[C@H]4O[C@@H]4O[C@H](CO)[C@@H](O)[C@H](O)[C@H]4O)C(C)(C)[C@@H]3CC[C@]12C [Ginsenoside Rc] ?
97.0
